We begin with a simple list: items and their reported log2 fold change.
study target: AAK1 (UniProt Q2M2I8)
Sequence (Q2M2I8 whole entry, looked up): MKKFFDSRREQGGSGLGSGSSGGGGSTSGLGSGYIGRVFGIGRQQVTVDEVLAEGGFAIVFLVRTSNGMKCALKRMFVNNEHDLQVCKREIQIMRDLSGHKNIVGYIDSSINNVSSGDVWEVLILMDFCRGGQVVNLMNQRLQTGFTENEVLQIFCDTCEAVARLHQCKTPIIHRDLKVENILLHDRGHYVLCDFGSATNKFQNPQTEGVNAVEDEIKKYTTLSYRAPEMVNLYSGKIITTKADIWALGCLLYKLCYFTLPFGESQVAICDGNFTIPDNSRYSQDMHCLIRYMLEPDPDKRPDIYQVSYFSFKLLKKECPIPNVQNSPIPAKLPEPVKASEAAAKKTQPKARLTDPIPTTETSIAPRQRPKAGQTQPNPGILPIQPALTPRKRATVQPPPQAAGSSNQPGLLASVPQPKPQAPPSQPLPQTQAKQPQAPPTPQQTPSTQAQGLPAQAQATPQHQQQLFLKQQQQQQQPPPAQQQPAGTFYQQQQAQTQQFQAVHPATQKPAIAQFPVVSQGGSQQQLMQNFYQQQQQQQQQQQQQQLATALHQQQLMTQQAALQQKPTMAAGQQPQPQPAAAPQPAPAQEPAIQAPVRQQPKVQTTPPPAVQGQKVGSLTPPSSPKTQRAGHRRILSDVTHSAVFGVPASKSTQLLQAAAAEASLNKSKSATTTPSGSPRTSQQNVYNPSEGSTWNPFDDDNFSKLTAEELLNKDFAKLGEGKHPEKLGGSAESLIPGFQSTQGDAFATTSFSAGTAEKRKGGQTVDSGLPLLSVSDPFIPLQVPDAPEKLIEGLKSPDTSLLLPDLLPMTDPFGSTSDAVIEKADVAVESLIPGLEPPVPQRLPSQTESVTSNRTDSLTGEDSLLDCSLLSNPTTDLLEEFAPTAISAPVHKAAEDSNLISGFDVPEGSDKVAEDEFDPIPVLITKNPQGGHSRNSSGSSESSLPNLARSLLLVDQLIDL
assay text: log2 fold change, soluble protein after heating vs DMSO (PISA); higher = thermal stabilisation; K562 cells, 10 uM, 30 min; active = over 0.2 and 3.5 SD of the protein, either way, in both replicates (recomputed)
The full data set covers some 7,900 targets. This sample favours those with a hit. About 0.6% of all pairs of compound and target were hits.
Could you respond with only the numeric value?

// below: answered compounds
In [3]: df
Out[3]:
                            chemical_string      test_readout  numeric_result
0  c1cc(OCCN2CCCCC2)cc(-c2n[nH]c3ccc(-c4nnc[nH]4)cc23)c1  log2 fold change           0.052
1  CCn1c(C(=O)N(C2CC2)C2CC2)cc2c3c(ncn3C)c(Nc3cc(C)n(C)n3)nc21  log2 fold change           0.019
2  CC[C@@H]1C(=O)N(C)c2cnc(Nc3ccc(C(=O)N[C@H]4CC[C@H](N5CCN(CC6CC6)CC5)CC4)cc3OC)nc2N1C(C)C  log2 fold change           0.121

Pending compound:
INPUT: Consider the compound "CNCc1ccc(-c2[nH]c3cc(F)cc4c3c2CCNC4=O)cc1" and give its measured log2 fold change.
OUTPUT: -0.013

====

study target: AAGAB (UniProt Q6PD74)
Sequence (Q6PD74 whole entry, looked up): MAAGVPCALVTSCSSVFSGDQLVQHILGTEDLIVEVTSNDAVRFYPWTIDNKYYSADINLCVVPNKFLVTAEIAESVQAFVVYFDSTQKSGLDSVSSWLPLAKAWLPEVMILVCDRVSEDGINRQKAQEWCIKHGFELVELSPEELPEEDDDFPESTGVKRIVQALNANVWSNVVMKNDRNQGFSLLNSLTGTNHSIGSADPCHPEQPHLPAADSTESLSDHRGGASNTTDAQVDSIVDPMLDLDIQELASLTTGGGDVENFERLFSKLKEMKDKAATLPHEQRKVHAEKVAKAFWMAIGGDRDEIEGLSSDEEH
assay text: log2 fold change, soluble protein after heating vs DMSO (PISA); higher = thermal stabilisation; K562 cells, 10 uM, 30 min; active = over 0.2 and 3.5 SD of the protein, either way, in both replicates (recomputed)
Targets with a hit are over-represented here; the source holds about 7,900 in all. About 0.6% of all pairs of compound and target were hits.
We begin with a simple list: items and their reported log2 fold change.
Could you respond with only the numeric value?

chemical string	test readout	numeric result
CO[C@H]1C[C@@H]2CC[C@@H](C)[C@@](O)(O2)C(=O)C(=O)N2CCCC[C@H]2C(=O)O[C@H]([C@H](C)C[C@@H]2CC[C@H](n3cnnn3)[C@H](OC)C2)CC(=O)[C@H](C)/C=C(\C)[C@@H](O)[C@@H](OC)C(=O)[C@H](C)C[C@H](C)/C=C/C=C/C=C/1C	log2 fold change	-0.093
O=C(Nc1cccc(Nc2ncc(Br)c(NCCc3cnc[nH]3)n2)c1)N1CCCC1	log2 fold change	0.067
Cc1nc(Nc2n[nH]c3c2CN(C(=O)N[C@H](CN(C)C)c2ccccc2)C3(C)C)c2sccc2n1	log2 fold change	-0.109
Cc1cc(SCc2sc(-c3ccc(C(F)(F)F)cc3)nc2C)ccc1OCC(=O)O	log2 fold change	0.051
CCn1c(C(=O)N(C2CC2)C2CC2)cc2c3c(ncn3C)c(Nc3cc(C)n(C)n3)nc21	log2 fold change	0.073

INPUT: Please provide the recorded log2 fold change for "c1cn2cc(-c3ccc4cn[nH]c4c3)nc(Nc3ccc(N4CCOCC4)cc3)c2n1" , tested on AAGAB (UniProt Q6PD74).
OUTPUT: 0.116

INPUT: Please provide the recorded log2 fold change for "CCn1cc(-c2ccnc3[nH]c(-c4cccc(CN(C)C)c4)cc23)c(-c2ccc(NC(=O)N(C)C)cc2)n1" , tested on AAGAB (UniProt Q6PD74).
OUTPUT: -0.018

INPUT: Please provide the recorded log2 fold change for "NC1(Cc2ccc(Cl)cc2)CCN(c2ncnc3[nH]ccc23)CC1" , tested on AAGAB (UniProt Q6PD74).
OUTPUT: 0.054

====

study target: AAK1 (UniProt Q2M2I8)
assay text: log2 fold change, soluble protein after heating vs DMSO (PISA); higher = thermal stabilisation; K562 cells, 10 uM, 30 min; active = over 0.2 and 3.5 SD of the protein, either way, in both replicates (recomputed)
About 7,900 targets were measured; listed, in parts, are those with a hit and a random draw of the rest. About 0.6% of all pairs of compound and target were hits.
We begin with a simple list: items and their reported log2 fold change.
Could you respond with only the numeric value?

// below: answered compounds
                            chemical_string      test_readout  numeric_result
0  NC(=O)c1cnc(N[C@@H]2CCCC[C@@H]2N)nc1Nc1cccc(-n2nccn2)c1  log2 fold change           0.055
1  c1cn2cc(-c3ccc4cn[nH]c4c3)nc(Nc3ccc(N4CCOCC4)cc3)c2n1  log2 fold change           0.132

INPUT: Consider the compound "Oc1cc(-c2nc(-c3ccccc3)[nH]c2-c2ccncc2)ccc1Cl" and give its measured log2 fold change.
OUTPUT: 0.073

INPUT: Consider the compound "Nc1ccccc1NC(=O)c1ccc(CNC(=O)OCc2cccnc2)cc1" and give its measured log2 fold change.
OUTPUT: -0.015

INPUT: Consider the compound "O=C(CCCCCCC(=O)Nc1ccccc1)NO" and give its measured log2 fold change.
OUTPUT: 0.074

====

study target: AAGAB (UniProt Q6PD74)
assay text: log2 fold change, soluble protein after heating vs DMSO (PISA); higher = thermal stabilisation; K562 cells, 10 uM, 30 min; active = over 0.2 and 3.5 SD of the protein, either way, in both replicates (recomputed)
About 7,900 targets were measured; listed, in parts, are those with a hit and a random draw of the rest. About 0.6% of all pairs of compound and target were hits.
We begin with a simple list: items and their reported log2 fold change.

INPUT: Consider the compound CCN(CCCOc1ccc2c(Nc3cc(CC(=O)Nc4cccc(F)c4)[nH]n3)ncnc2c1)CCOP(=O)(O)O [barasertib] and give its measured log2 fold change.
OUTPUT: 0.068 (inactive)

INPUT: Consider the compound "C/C(=N\NC(=O)c1cccc(S(=O)(=O)N2CCOCC2)c1)c1cc(Cl)ccc1O" and give its measured log2 fold change.
OUTPUT: 0.088 (inactive)

INPUT: Consider the compound "CS(=O)(=O)c1ccc(-c2cnc(N)c(C(=O)Nc3ccccc3)n2)cc1" and give its measured log2 fold change.
OUTPUT: 0.097 (inactive)

INPUT: Consider the compound "Cc1ccc(NC(=O)c2cccc(N(C)C)c2)cc1NC(=O)c1ccc(O)cc1" and give its measured log2 fold change.
OUTPUT: -0.063 (inactive)

INPUT: Consider the compound "C[C@@H]1COCCN1c1cc(C2(S(C)(=O)=O)CC2)nc(-c2cccc3[nH]ccc23)n1" and give its measured log2 fold change.
OUTPUT: -0.035 (inactive)

INPUT: Consider the compound Cc1cc(Nc2cc(N3CCN(C)CC3)nc(Sc3ccc(NC(=O)C4CC4)cc3)n2)n[nH]1 [tozasertib] and give its measured log2 fold change.
OUTPUT: 0.029 (inactive)

INPUT: Consider the compound O=C(CCCCCCC(=O)Nc1ccccc1)NO [vorinostat] and give its measured log2 fold change.
OUTPUT: -0.009 (inactive)

INPUT: Consider the compound CS(=O)(=O)N1CCN(Cc2cc3nc(-c4cccc5[nH]ncc45)nc(N4CCOCC4)c3s2)CC1 [pictilisib] and give its measured log2 fold change.
OUTPUT: 0.039 (inactive)

====

study target: AAGAB (UniProt Q6PD74)
assay text: log2 fold change, soluble protein after heating vs DMSO (PISA); higher = thermal stabilisation; K562 cells, 10 uM, 30 min; active = over 0.2 and 3.5 SD of the protein, either way, in both replicates (recomputed)
Targets with a hit are over-represented here; the source holds about 7,900 in all. About 0.6% of all pairs of compound and target were hits.
# log2 fold change binned as LOW (below -0.03), MID (-0.03 to below 0.02), HIGH (0.02 or more)

>>> print(df.to_string())
                                  compound  assigned_class
0  Fc1ccc(Cl)cc1-c1nc(Nc2ccncc2)c2nccnc2n1            HIGH

INPUT: Any idea which band "NC(=O)c1cnc(N[C@@H]2CCCC[C@@H]2N)nc1Nc1cccc(-n2nccn2)c1" is in?
OUTPUT: MID

INPUT: Any idea which band Cc1cc(Nc2cc(CN3CCOCC3)c3nc(C)c(Cc4ccc(Cl)cc4F)n3n2)n[nH]1 [gandotinib] is in?
OUTPUT: MID

INPUT: Any idea which band "Cc1ccc2c(=O)c3ccccc3n(CCCN)c2c1C" is in?
OUTPUT: MID

INPUT: Any idea which band CN1CCc2c(c3ccccc3n2Cc2ccc(C(=O)NO)cc2)C1 [Tubastatin A] is in?
OUTPUT: MID

INPUT: Any idea which band "CNC(=O)c1ccccc1Nc1nc(Nc2ccc(N3CCOCC3)cc2OC)ncc1Cl" is in?
OUTPUT: HIGH

INPUT: Any idea which band "Cn1cc(-c2ccc3c(c2)CCN3C(=O)Cc2cccc(C(F)(F)F)c2)c2c(N)ncnc21" is in?
OUTPUT: LOW

====

study target: AAK1 (UniProt A0A096LP25)
assay text: log2 fold change, soluble protein after heating vs DMSO (PISA); higher = thermal stabilisation; K562 cells, 10 uM, 30 min; active = over 0.2 and 3.5 SD of the protein, either way, in both replicates (recomputed)
About 7,900 targets were measured; listed, in parts, are those with a hit and a random draw of the rest. About 0.6% of all pairs of compound and target were hits.
We begin with a simple list: items and their reported log2 fold change.
Could you respond with only the numeric value?

                            chemical_string               study_target  numeric_result
0  c1cn2cc(-c3ccc4cn[nH]c4c3)nc(Nc3ccc(N4CCOCC4)cc3)c2n1  AAK1 (UniProt A0A096LP25)           0.224

INPUT: Consider the compound "Cc1ccc(C(=O)N(CCCN)[C@@H](c2nc3cc(Cl)ccc3c(=O)n2Cc2ccccc2)C(C)C)cc1" and give its measured log2 fold change.
OUTPUT: 0.011

INPUT: Consider the compound "CNC(=O)c1ccc(Nc2ncc(C(F)(F)F)c(NCc3nccnc3N(C)S(C)(=O)=O)n2)cc1" and give its measured log2 fold change.
OUTPUT: 0.037
